Origin of measurements: patent US12704520B2

system: FAM86A (NM_201400.4); test: shRNA mean knockdown level of FAM86A (Table 1); type: cell-based; details: Homo sapiens FAM86A, pLKO.1 vector
Reported Mean Knock down level values for the following substances.
// no unit, no text: just the number

// fetch Mean Knock down level for SEQ ID NO: 15: FAM86A shRNA (Homo sapiens, NM_201400.4), pLKO.1 vector, target sequence SEQ ID NO: 25 (DNA CCGGGCAGACATCACTGCCAAGTTACTCGAGTAACTTGGCAGTGATGTCTGCTTTTTG) ; system: FAM86A (NM_201400.4) 0.6

// fetch Mean Knock down level for SEQ ID NO: 11: FAM86A shRNA (Homo sapiens, NM_201400.4), pLKO.1 vector, target sequence SEQ ID NO: 21 (DNA CCGGGCAGAAACTGTTTCCCTACGACTCGAGTCGTAGGGAAACAGTTTCTGCTTTTTG) ; system: FAM86A (NM_201400.4) 0.93
